METHOD NOTES: RP, Thermo Scientific Hypersil GOLD, 150 × 2.1 mm, 1.9 µm, 0.5 mL/min, estimated dead time 0.66 min; A: water + 0.1% formic acid, pH 3; B: acetonitrile + 0.1% formic acid, pH 3; gradient (min/%B) 0/0 2/0 13/100 15.5/100 19/0
ASSAY SETUP: stereoisomer not certain
ENDPOINT: LC retention time (min)
Give bare numbers, in min.

COMPOUND | UNIT ABBREV | ENDPOINT VALUE
Cc1cc2nc3c(=O)[nH]c(=O)nc-3n(CC(O)C(O)C(O)CO)c2cc1C (centres undefined) | min | 5.7
O=C(O)CC(Nc1ncnc2c1ncn2C1OC(CO)C(O)C1O)C(=O)O (centres undefined) | min | 4.8
Cc1ncc(CO)c(C(=O)O)c1O | min | 5.6

Consider the record given below.
Looking up Cc1ncc(C=O)c(CO)c1O [pyridoxal isomer] , I found its LC retention time recorded as 1.1

====

METHOD NOTES: RP, Thermo Scientific Hypersil GOLD, 150 × 2.1 mm, 1.9 µm, 0.5 mL/min, estimated dead time 0.66 min; A: water + 0.1% formic acid, pH 3; B: acetonitrile + 0.1% formic acid, pH 3; gradient (min/%B) 0/0 2/0 13/100 15.5/100 19/0
ASSAY SETUP: stereoisomer not certain
Exercise: state measured LC retention time for each of the compounds provided.
Answers are plain numbers, in min.

COMPOUND | UNIT ABBREV | LC retention time
CC(C)CC(=O)C(=O)O | min | 5.7
NC(=O)c1cccnc1 [nicotinamide] | min | 1.1
Cn1c(=O)c2[nH]c(=O)[nH]c2n(C)c1=O | min | 4.7

// batch mode: one LC retention time value per listed entry
1. CC(=O)NCCCNCCCCN
2. Cn1c(=O)c2c(ncn2C)n(C)c1=O
3. CCC(=O)OC(CC(=O)[O-])C[N+](C)(C)C (centres undefined)
4. CCC(CCCCCC(=O)O)C(=O)O (centres undefined)
5. CN(C)c1nc2c(ncn2C2OC(CO)C(O)C2O)c(=O)[nH]1 (centres undefined)
6. CN1CCCC1c1cccnc1 (centres undefined)
7. Nc1ccnc(=O)[nH]1

[reply]
[0.9, 5.6, 3.6, 6.7, 4.8, 1.1, 1.1]

====

METHOD NOTES: RP, Thermo Scientific Hypersil GOLD, 150 × 2.1 mm, 1.9 µm, 0.5 mL/min, estimated dead time 0.66 min; A: water + 0.1% formic acid, pH 3; B: acetonitrile + 0.1% formic acid, pH 3; gradient (min/%B) 0/0 2/0 13/100 15.5/100 19/0
ASSAY SETUP: stereoisomer not certain
Binarize LC retention time at 1 min; below is 1, at or above is 0.

MOLECULE | GROUP
CC12CCC3C(CCC4CC(OC5OC(C(=O)O)C(O)C(O)C5O)CCC43C)C1CCC2=O (centres undefined) [androsterone glucuronide] | 0
CSCC(O)C(O)C(O)C=O (centres undefined) | 0
C[N+](C)(C)[O-] [trimethylamine oxide] | 1

[ask] API: query returns whether the molecule falls strictly under 1 min in LC retention time. Query: NCCCCNCCCN
[reply] 1

[ask] Record N[C@@H](Cc1c[nH]c2ccccc12)C(=O)O : is its LC retention time strictly below 1 min?
[reply] 1

[ask] Does this molecule meet the criterion LC retention time < 1 min? CC(=O)NCCCCN
[reply] 0

[ask] Please check: LC retention time for Nc1ccc(O)cc1 , strictly under 1 min or not?
[reply] 0

[ask] Is 1 min strictly greater than the molecule's reported LC retention time? molecule: Cn1c(=O)[nH]c2[nH]c(=O)n(C)c2c1=O
[reply] 0
